I'd be grateful if you could share measured composite z-score for these entries.
Biological target: Neurogenic locus notch homolog protein 2 (Homo sapiens) (UniProt Q04721)
Sequence (Q04721 whole entry, looked up): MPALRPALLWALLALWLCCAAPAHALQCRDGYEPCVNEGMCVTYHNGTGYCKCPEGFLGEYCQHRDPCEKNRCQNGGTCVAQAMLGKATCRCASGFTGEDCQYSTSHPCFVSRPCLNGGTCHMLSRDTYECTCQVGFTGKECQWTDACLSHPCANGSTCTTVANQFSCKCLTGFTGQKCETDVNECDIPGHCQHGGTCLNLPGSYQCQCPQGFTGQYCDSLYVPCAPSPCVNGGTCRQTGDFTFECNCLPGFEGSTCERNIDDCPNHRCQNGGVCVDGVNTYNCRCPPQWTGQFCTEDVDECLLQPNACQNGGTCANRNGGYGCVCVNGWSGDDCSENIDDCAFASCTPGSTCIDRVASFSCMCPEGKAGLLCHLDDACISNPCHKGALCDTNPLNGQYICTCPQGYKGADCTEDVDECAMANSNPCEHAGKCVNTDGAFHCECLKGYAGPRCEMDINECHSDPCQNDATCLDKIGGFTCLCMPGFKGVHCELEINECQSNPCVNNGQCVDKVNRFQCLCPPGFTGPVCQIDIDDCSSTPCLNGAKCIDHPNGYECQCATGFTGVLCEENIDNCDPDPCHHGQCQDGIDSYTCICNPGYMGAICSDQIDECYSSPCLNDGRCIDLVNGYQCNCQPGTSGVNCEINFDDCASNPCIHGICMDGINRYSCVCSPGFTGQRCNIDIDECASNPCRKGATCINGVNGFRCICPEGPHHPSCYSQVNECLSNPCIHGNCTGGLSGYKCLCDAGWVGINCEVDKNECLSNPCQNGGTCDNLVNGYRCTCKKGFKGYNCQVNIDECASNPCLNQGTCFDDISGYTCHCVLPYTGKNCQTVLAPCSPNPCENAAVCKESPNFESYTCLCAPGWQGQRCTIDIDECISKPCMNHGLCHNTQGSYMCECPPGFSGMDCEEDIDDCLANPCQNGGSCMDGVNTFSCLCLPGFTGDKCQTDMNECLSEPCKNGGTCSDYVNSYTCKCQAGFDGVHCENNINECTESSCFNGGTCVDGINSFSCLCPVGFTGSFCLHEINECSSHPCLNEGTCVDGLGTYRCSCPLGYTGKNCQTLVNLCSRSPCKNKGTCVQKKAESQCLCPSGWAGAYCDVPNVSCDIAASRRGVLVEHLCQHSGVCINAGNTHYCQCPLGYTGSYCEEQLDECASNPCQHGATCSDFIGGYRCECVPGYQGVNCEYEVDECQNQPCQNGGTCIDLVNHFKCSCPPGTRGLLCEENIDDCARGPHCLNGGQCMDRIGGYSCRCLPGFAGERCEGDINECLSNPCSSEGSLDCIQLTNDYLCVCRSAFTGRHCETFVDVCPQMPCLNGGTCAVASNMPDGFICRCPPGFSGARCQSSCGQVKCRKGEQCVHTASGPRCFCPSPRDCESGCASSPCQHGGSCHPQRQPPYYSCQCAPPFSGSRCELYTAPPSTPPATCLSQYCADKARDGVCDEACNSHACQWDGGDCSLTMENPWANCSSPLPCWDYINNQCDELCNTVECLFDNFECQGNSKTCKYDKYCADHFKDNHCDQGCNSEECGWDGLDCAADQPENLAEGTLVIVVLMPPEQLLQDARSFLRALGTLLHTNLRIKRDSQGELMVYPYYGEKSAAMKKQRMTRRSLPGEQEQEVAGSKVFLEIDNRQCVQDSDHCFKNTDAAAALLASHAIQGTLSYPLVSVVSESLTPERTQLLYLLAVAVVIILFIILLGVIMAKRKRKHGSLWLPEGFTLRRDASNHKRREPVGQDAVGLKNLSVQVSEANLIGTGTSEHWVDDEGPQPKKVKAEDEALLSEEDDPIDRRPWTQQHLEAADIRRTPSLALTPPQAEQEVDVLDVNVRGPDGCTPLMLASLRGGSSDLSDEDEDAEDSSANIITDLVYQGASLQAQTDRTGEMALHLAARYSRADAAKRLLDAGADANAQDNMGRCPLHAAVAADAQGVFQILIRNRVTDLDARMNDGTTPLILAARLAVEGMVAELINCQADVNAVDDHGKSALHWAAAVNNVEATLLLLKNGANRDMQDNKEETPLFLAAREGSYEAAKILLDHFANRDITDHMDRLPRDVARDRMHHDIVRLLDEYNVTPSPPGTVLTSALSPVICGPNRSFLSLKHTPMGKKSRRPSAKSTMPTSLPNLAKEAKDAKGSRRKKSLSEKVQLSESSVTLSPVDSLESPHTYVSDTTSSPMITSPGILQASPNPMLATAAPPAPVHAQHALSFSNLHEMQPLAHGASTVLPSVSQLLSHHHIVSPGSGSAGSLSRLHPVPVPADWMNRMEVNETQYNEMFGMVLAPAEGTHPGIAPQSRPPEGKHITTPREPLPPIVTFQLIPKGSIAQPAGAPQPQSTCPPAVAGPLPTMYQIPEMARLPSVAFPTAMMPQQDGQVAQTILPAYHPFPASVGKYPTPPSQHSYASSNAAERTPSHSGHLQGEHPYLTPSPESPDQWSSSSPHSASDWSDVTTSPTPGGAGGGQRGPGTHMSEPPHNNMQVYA
Test: Notch2 binders on small-molecule microarrays, primary screen, biochemical, small-molecule microarray, 635 nm fluorescence, stem cell growth factors (AID 1073)
Details: Notch2 binding, higher = more signal
Please respond with just the number, no unit label.

Inquiry: Fill blank: measured composite z-score of the compound C=CCC(OC(C)=O)[C@@H]1[C@@H](N(Cc2cc3ccccc3o2)C(=O)c2ccc(-c3ccccc3)cc2)c2cc(OCCCO)ccc2N1C(=O)c1ccc2ccccc2n1 (stereo partly specified) is ____.
Reply text: -0.234

Inquiry: Thanks! And COc1ccc(CCNC(=O)[C@@]2(Sc3ccc(C)cc3)CC(=O)N(Cc3cc(C(F)(F)F)cc(C(F)(F)F)c3)[C@@H]2c2ccc(CO)cc2)cc1 ?
Reply text: -1.79

Inquiry: Thanks! And CCOC(=O)C1=CC[C@@H](c2ccccc2)N(S(=O)(=O)C[Si](C)(C)C)[C@H]1c1ccccc1 ?
Reply text: 1.25

Inquiry: Thanks! And C=CCOC(=O)[C@H]1[C@@H]2C(=O)O[C@@H](c3ccccc3)[C@@H](c3ccccc3)N2[C@@H](c2ccc(OCCOC(=O)[C@H]3C[C@H]4C(=O)NCC(=O)N4[C@H]3c3ccc(O)cc3)cc2)[C@]12C(=O)Nc1ccc(I)cc12 ?
Reply text: 0.636

Inquiry: Thanks! And NC(=O)NCC#Cc1ccc2c(c1)[C@]1(C(=O)N2)[C@H](C(=O)N2CCCCCCC2)[C@H]2C(=O)O[C@H](c3ccccc3)[C@H](c3ccccc3)N2[C@@H]1c1ccc(O)cc1 ?
Reply text: 0.879

Inquiry: Thanks! And CC(C)c1ccc(NN2C(C(O)C(C)C)C=CC3C(=O)N(c4ccccc4)C(=O)C32)cc1 (stereo unspecified) ?
Reply text: 1.55

---

Test: RPMI8226 myeloma cell viability, profiling panel, resazurin fluorescence, basal, 24 h, PK04 Diversity Set (AID 1180);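 also: RPMI8826 multiple myeloma cell line at 5000 cells per well; test concentration not given here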
Conditions: higher = more signal
I'd be grateful if you could share measured z-score for these entries.
Please respond with just the number, no unit label.

Inquiry: Fill blank: measured z-score of the molecule CCOC(=O)C1=CC[C@@H](c2ccc(F)cc2)N(S(=O)(=O)c2ccc(C)cc2)[C@H]1c1ccc([N+](=O)[O-])cc1 is ____.
Reply text: -0.678

Inquiry: Thanks! And COCCOC(=O)N1C(=O)[C@@]2(c3cc(C#CCC(C(=O)OC)C(=O)OC)ccc31)[C@H](C(=O)N1CCCCCCC1)[C@H]1C(=O)O[C@H](c3ccccc3)[C@H](c3ccccc3)N1[C@@H]2c1ccccc1OCCO ?
Reply text: 0.0277

Inquiry: Thanks! And CO[C@H]1O[C@H](CO)[C@@H](OC(=O)Nc2ccccc2)[C@@H]2OC(=O)[C@H](Cc3ccccc3)C/C=C/C[C@@H](Cc3ccccc3)C(=O)O[C@@H]12 ?
Reply text: -2.26

Inquiry: Thanks! And CC(C)C[C@H]1NC(=O)[C@@H](C)NC(=O)[C@@]23C(=O)N[C@@H](Cc4ccccc4)C2[C@H](C)[C@@]2(C)O[C@H]2C3/C=C/C/C=C\CNC1=O (some centres not stated) ?
Reply text: 0.184

Inquiry: Thanks! And CN(C)C(=O)[C@@]1(CCS(=O)(=O)c2ccccc2)N=C(c2ccc(OCCCO)cc2)O[C@H]1c1ccccc1N=[N+]=[N-] ?
Reply text: -1.68

Inquiry: Thanks! And COc1ccc([Si](C)(C)[C@H]2[C@H](CCn3cc([C@H](O)c4ccccc4)nn3)O[C@@]3(C(=O)N(c4ccccc4)c4ccccc43)[C@@H]2C)cc1 ?
Reply text: -1.34

Inquiry: Thanks! And COC(=O)[C@@]1(Cc2ccc(F)cc2)[C@H]2c3cc(C(=O)N(C)C)n(CCn4cc([N+](=O)[O-])nc4C)c3C[C@H]2CN1C(=O)c1ccccc1 ?
Reply text: -0.801

Inquiry: Thanks! And CCCCC=C[C@@H](NC(=O)c1ccc(C(F)(F)F)cc1)c1ccccc1 ?
Reply text: 1.1

Inquiry: Thanks! And CCC[C@@H]1[C@@H](Sc2ccccc2)[C@@H](C(=O)O)[C@H](c2ccc(C)cc2)N1S(=O)(=O)c1ccc(C)cc1 ?
Reply text: -0.862

Inquiry: Thanks! And C=CCC(OC(C)=O)[C@@H]1[C@@H](N(Cc2ccc(-c3cccc(C(F)(F)F)c3)o2)C(=O)Cc2ccc(F)cc2)c2cc(OCCCO)ccc2N1C(=O)c1ccc2ccccc2n1 (some centres not stated) ?
Reply text: -0.128

Inquiry: Thanks! And COC(=O)[C@@]1(Cc2ccc(F)cc2)[C@H]2c3cc(C(=O)N4CCCC4)n(CCO)c3C[C@H]2CN1C(=O)c1ccccc1 ?
Reply text: -0.908

Inquiry: Thanks! And COCCOC(=O)N1C(=O)[C@@]2(c3cc(C#CC4=CCCCC4)ccc31)[C@H](C(=O)N1CCN(c3ncccn3)CC1)[C@H]1C(=O)O[C@H](c3ccccc3)[C@H](c3ccccc3)N1[C@@H]2c1ccccc1OCCO ?
Reply text: 0.318

Inquiry: Thanks! And COC(=O)[C@]1(CO)N=C(c2ccc(OCCCO)cc2)O[C@@H]1c1ccccc1CN=[N+]=[N-] ?
Reply text: -0.15

Inquiry: Thanks! And CCCC[C@@H]1C[C@H]1[C@@H](NC(=O)c1ccc(C(F)(F)F)cc1)c1ccc(C(=O)OC)cc1 ?
Reply text: 0.971

Inquiry: Thanks! And CCCCC(O)C1C=CC2C(=O)N(C)C(=O)C2N1Nc1ccccc1 (configuration not stated) ?
Reply text: -1.5

Inquiry: Thanks! And C=CCC(OC(C)=O)[C@@H]1[C@@H](N(Cc2cc3ccccc3o2)C(=O)c2cccc3ccccc23)c2cc(OCCCO)ccc2N1C(=O)c1ccc2ccccc2c1 (some centres not stated) ?
Reply text: -0.855

Inquiry: Thanks! And [N-]=[N+]=NCc1ccccc1[C@H]1OC(c2ccc(OCCCO)cc2)=N[C@@]1(Cc1ccccc1)C(=O)N1CCOCC1 ?
Reply text: 0.349

Inquiry: Thanks! And COc1ccc(CC[C@H](O)c2cccc(OCC(=O)OC(C)(C)C)c2)cc1 ?
Reply text: -0.204

Inquiry: Thanks! And [N-]=[N+]=NCc1ccccc1[C@@H]1OC(c2ccc(OCCCO)cc2)=N[C@]1(Cc1ccccc1)C(=O)NCc1ccccc1 ?
Reply text: -0.484

Inquiry: Thanks! And COc1ccc([Si](C)(C)[C@@H]2[C@@H](CCO)O[C@]3(C(=O)N(Cc4ccccc4)c4ccc(N5C(=O)c6ccccc6Oc6ccccc65)cc43)[C@H]2C)cc1 ?
Reply text: -1.81

Inquiry: Thanks! And O=C1N(Cc2ccccc2)c2ccccc2[C@H]2OC(c3ccc(OCCCO)cc3)=N[C@@]12Cc1ccccc1 ?
Reply text: -3.36

Inquiry: Thanks! And COCC1=C([C@H](O)CCc2ccccc2)[C@H](CO)n2c(=O)n(-c3ccccc3)c(=O)n2C1 ?
Reply text: 0.113

Inquiry: Thanks! And COCCOC(=O)N1C(=O)[C@@]2(c3cc(C#Cc4ccc(OC)cc4)ccc31)[C@H](C(=O)Nc1nc3ccccc3s1)[C@H]1C(=O)O[C@H](c3ccccc3)[C@H](c3ccccc3)N1[C@@H]2c1ccccc1OCCO ?
Reply text: 1.85

Inquiry: Thanks! And N#Cc1ccc(C(O)C2C=CC3C(=O)N(c4ccccc4)C(=O)C3N2Nc2ccc([N+](=O)[O-])cc2)cc1 (configuration not stated) ?
Reply text: -0.783

Inquiry: Thanks! And C=CC[C@@]1(C(=O)N(C)C)N=C(c2ccc(OCCCO)cc2)O[C@@H]1c1ccccc1 ?
Reply text: 0.267

Inquiry: Thanks! And CC1CC/C=C\[C@H]2OC34C=CCN(c5ccc(Cl)cc5)C(=O)[C@H]3N(CCCO)C(=O)[C@]4(C)C2C(=O)O1 (some centres not stated) ?
Reply text: -0.208

Inquiry: Thanks! And CCOC(=O)C[C@H]1[C@H](OC(=O)c2ccc(C(=O)c3ccccc3)cc2)[C@@H](NC(=O)c2ccc3ccccc3c2)c2cc(OCCCO)ccc2N1C(=O)c1ccc2ccccc2n1 ?
Reply text: 0.395

---

Assay: yeast growth modulation, basal conditions, primary screen, YJM789 clinical isolate, OD600, 24 h (AID 1089);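 also: growth of clinical yeast isolate S. cerevisiae YJM 789 seeded 1000 cells per well; test concentration not given here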
Conditions: S. cerevisiae YJM789 growth, higher = more signal, called active from +8 up or from −8 down
I'd be grateful if you could share measured z-score for these entries.
Please respond with just the number, no unit label.

Inquiry: Fill blank: measured z-score of the molecule COC(=O)C1(CC(C)C)C=C2C(=C(C(C)C)C(=O)C2C)CN1 (centres undefined) is ____.
Reply text: -0.166

Inquiry: Thanks! And CO[C@H]1O[C@H](CO)[C@@H](OC(=O)Nc2ccc(C(F)(F)F)cc2)[C@H](OC(=O)Nc2ccccc2-c2ccccc2)[C@@H]1OC(=O)Nc1ccccc1-c1ccccc1 ?
Reply text: 0.94

Inquiry: Thanks! And CCCCC(O)C1C=CC2C(=O)NC(=O)C2N1Nc1ccc(Cl)cc1Cl (centres undefined) ?
Reply text: -25.2

Inquiry: Thanks! And CC(C)N1CC=CC23O[C@@H]4C=CCCOC(=O)C4[C@H]2C(=O)N(CCCCCO)[C@@H]3C1=O (some centres undefined) ?
Reply text: -0.0489

Inquiry: Thanks! And CC(=O)c1ccc(C(O)C2C=CC3C(=O)NC(=O)C3N2Nc2ccc(Cl)cc2Cl)cc1 (centres undefined) ?
Reply text: 0.727

Inquiry: Thanks! And COCCOC(=O)N1C(=O)[C@@]2(c3cc(C#Cc4ccc(OC)cc4)ccc31)[C@H](c1ccc(OCCO)cc1)N1[C@H](c3ccccc3)[C@H](c3ccccc3)OC(=O)[C@H]1[C@@H]2C(=O)N1CCCCCCC1 ?
Reply text: -1.32

Inquiry: Thanks! And O=C1OCCC/C=C\[C@H]2OC34C=CCN(Cc5ccccc5)C(=O)[C@H]3N(CCCCCO)C(=O)[C@@H]4C12 (some centres undefined) ?
Reply text: -1.05

Inquiry: Thanks! And C=CCN1C(=O)[C@]2(O[C@H](CCn3cc([C@H](O)c4ccccc4)nn3)[C@@H]([Si](C)(C)c3ccc(OC)cc3)[C@@H]2C)c2cc(N3C(=O)c4cccc5cccc3c45)ccc21 ?
Reply text: -0.055

Inquiry: Thanks! And CCCCCCCCCCC(O)C1C=CC2C(=O)N(C)C(=O)C2N1N1CCCCC1 (centres undefined) ?
Reply text: 1.16

Inquiry: Thanks! And COCCOC(=O)N1C(=O)[C@@]2(c3ccccc31)[C@H](C(=O)N1CCCCCCC1)[C@H]1C(=O)O[C@H](c3ccccc3)[C@H](c3ccccc3)N1[C@@H]2c1ccc(O)cc1 ?
Reply text: -1.37

Inquiry: Thanks! And C=C(COC)/C(=C/C[C@@H](OC(C)=O)c1ccccc1OCCO)c1cc(C(=O)OC)ccc1OC ?
Reply text: 1.16

Inquiry: Thanks! And COCCOC(=O)N1C(=O)[C@@]2(c3cc(C#CC4=CCCCC4)ccc31)[C@H](c1ccc(OCCO)cc1)N1[C@H](c3ccccc3)[C@H](c3ccccc3)OC(=O)[C@H]1[C@@H]2C(=O)N1CCCCCCC1 ?
Reply text: -1.06

Inquiry: Thanks! And CCOC(=O)C[C@H]1[C@H](OC(=O)c2cc3ccccc3oc2=O)[C@@H](NC(=O)C2CCCCC2)c2cc(OCCCO)ccc2N1C(=O)Cc1ccc(OC)cc1 ?
Reply text: 0.248

Inquiry: Thanks! And COC(=O)[C@@]1(Cc2ccc(OC)cc2)[C@H]2c3cc(C(=O)N4CCCC4)n(CCc4ccc(OC)c(Br)c4)c3C[C@H]2CN1C(=O)c1ccccc1 ?
Reply text: 0.0024
